Measurement target: Angiotensin receptor 1 (AT1) (Homo sapiens)
Construct: host or cells: Angiotensin receptor 1 (AT1) Cell Line (PathHunter)
Sequence (P30556 1-359): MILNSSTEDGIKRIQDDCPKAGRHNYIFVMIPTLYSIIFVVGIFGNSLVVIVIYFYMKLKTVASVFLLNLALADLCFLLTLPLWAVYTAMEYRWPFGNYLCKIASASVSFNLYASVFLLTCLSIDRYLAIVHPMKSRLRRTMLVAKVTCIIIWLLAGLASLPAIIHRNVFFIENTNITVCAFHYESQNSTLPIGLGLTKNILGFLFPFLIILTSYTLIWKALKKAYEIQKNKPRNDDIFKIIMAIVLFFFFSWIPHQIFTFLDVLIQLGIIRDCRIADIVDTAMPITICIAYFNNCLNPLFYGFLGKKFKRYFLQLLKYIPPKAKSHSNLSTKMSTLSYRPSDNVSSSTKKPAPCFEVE
Test summary: AT1 DiscoveRx PathHunter β-arrestin counterscreen (antagonism of angiotensin II)
Type: cell-based
Condition notes: β-arrestin assay, n = 4 unless noted in parentheses; read-out: AT1 Potency IC50 (μM) Ave. ± S.E.M.
This section presents compounds with their documented IC50 values.
Readout: IC50

Cc1ccnc(SCc2cc(=O)c(OC(=O)c3ccsc3)co2)n1 [Compound 76]: > 79 µM
Cc1cc(C)nc(SCc2cc(=O)c(OC(=O)c3cccc([N+](=O)[O-])c3C)co2)n1 [Compound 54]: > 79 µM
Cc1cc(C)nc(SCc2cc(=O)c(OC(=O)c3ccc(C)c([N+](=O)[O-])c3)co2)n1 [Compound 50]: > 79 µM
Cc1ccnc(SCc2cc(=O)c(OC(=O)c3ccccc3C)co2)n1 [Compound 46]: > 79 µM
O=C(Oc1coc(CSc2ncccn2)cc1=O)c1cc([N+](=O)[O-])ccc1Cl [Compound 21]: 60.1 µM
Cc1ccnc(SCc2cc(=O)c(OCc3ccc(Cl)c([N+](=O)[O-])c3)co2)n1 [Compound 67]: > 79 µM
Cc1cc(C)nc(SCc2cc(=O)c(OC(=O)c3cc([N+](=O)[O-])ccc3Cl)co2)n1 [Compound 53]: 49.7 µM
Cc1cc(C)nc(SCc2cc(=O)c(OC(=O)c3ccc(Cl)c([N+](=O)[O-])c3)co2)n1 [Compound 49]: > 79 µM

---

Measurement target: UniProt P35414
Sequence (P35414 whole entry, species assumed): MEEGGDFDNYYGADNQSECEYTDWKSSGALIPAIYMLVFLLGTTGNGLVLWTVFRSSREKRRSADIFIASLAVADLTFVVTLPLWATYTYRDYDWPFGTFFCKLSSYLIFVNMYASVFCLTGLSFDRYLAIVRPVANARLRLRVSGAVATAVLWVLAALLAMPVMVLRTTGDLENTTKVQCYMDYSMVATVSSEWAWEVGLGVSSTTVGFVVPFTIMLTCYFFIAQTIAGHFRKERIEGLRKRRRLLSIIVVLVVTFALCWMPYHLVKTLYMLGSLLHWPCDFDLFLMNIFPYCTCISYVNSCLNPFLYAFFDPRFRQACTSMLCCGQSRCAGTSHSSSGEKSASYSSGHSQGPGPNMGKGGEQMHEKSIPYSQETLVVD
Test summary: APJ DiscoveRx PathHunter β-arrestin assay (antagonism of apelin-13)
Assay type: cell-based
Set-up: host or cells: Angiotensin II receptor-like 1 (AGTRL-1) Cell Line (PathHunter)
This section presents compounds with their documented SI = Selectivity Index: (IC50 AT1)/(IC50 APJ) values.
Readout: SI = Selectivity Index: (IC50 AT1)/(IC50 APJ)

O=C(Oc1coc(CSc2ccc(Cl)cc2)cc1=O)c1ccc(Cl)c([N+](=O)[O-])c1: >17
O=C(Oc1coc(CSc2ncccn2)cc1=O)c1ccc(Cl)c([N+](=O)[O-])c1: >13
Cc1cc(C)nc(SCc2cc(=O)c(OC(=O)c3ccc(C)c([N+](=O)[O-])c3)co2)n1: >3
Cc1ccnc(SCc2cc(=O)c(OC(=O)c3ccc(C)c([N+](=O)[O-])c3)co2)n1: >17
Cc1cc(C)nc(SCc2cc(=O)c(OC(=O)c3ccc(Cl)c([N+](=O)[O-])c3)co2)n1: >15
